- Tested on: HT-29
- Assay Protocol: NCI tumour cell line growth inhibition, 48 h
The source made the active and inactive calls. Rule as the data show it: active = GI50 up to about 1.1 µM and inactive = higher.
Please reply with one of these outcomes: class 1 = active, class 0 = inactive

[in] How did this test come out for "O=C1c2ccccc2C(=O)N1C/C=N/NS(=O)(=O)c1ccc2ccccc2c1" ?
[out] class 0

[in] How did this test come out for "NCCOCn1cc(Cc2cccc(OCc3ccccc3)c2)c(=O)[nH]c1=O" ?
[out] class 0

[in] How did this test come out for CC1CC[C@@]2(OC1)OC1C[C@H]3[C@@H]4C/C(=N\N(C)C)[C@@]5(O)CC(O)CC[C@]5(C)[C@H]4CC[C@]3(C)C1[C@@H]2C (stereo not given in full) ?
[out] class 0

[in] How did this test come out for O=c1cc2n(c(=O)[nH]1)C1OC(C(O)C1O)[C@H]2CCO (stereo not given in full) ?
[out] class 0

[in] How did this test come out for "COc1ccc(C(=C2C=CC=C2)c2ccc(OC)cc2)cc1" ?
[out] class 0

[in] How did this test come out for "CNC(=S)/N=c1/sc(NC)nc2sc3c(c12)CCCC3" ?
[out] class 0

[in] How did this test come out for N#C[BH2-][n+]1cn(C2CC(OP(=O)(O)OCC3OC(n4cnc5c(N)ncnc54)CC3O)C(CO)O2)c2nc(N)[nH]c(=O)c21 (stereo not given) ?
[out] class 0

[in] How did this test come out for Cc1nn(C(=O)Cc2ccccc2)c2c1C(c1ccc(O)cc1)SC(=N)N2 (stereo not given) ?
[out] class 0

[in] How did this test come out for CC1=NC2(CCCCC2)N(Cl)C(=O)C1SC#N (stereo not given) ?
[out] class 0

[in] How did this test come out for "CC(=O)OC[C@@]1(C)[C@@H]2[C@@H]3[C@@]4(CO[C@]3(C)C(=O)[C@@]3(OC(C)=O)C[C@H](C)[C@H](OC(C)=O)[C@@H]3[C@H]4OC(C)=O)[C@H](OC(=O)c3ccccc3)C[C@@H]21" ?
[out] class 0

[in] How did this test come out for CCCC(C)NC1=C(NC(C)=O)C(=O)c2ccccc2C1=O (stereo not given) ?
[out] class 0

[in] How did this test come out for COc1cccc(N2C(=O)C3CC(CC(C)(C)C)c4c([nH]c5ccccc45)C3C2=O)c1 (stereo not given) ?
[out] class 0

[in] How did this test come out for "C#C[C@]1(O)CC[C@H]2[C@@H]3CCC4=C/C(=N/CCOC(=O)c5cccc6c(=O)c7ccccc7[nH]c56)CC[C@@H]4[C@H]3CC[C@@]21C" ?
[out] class 0

[in] How did this test come out for "CN(C)c1ccc(/C=C2\N=C(NN)NC2=O)cc1" ?
[out] class 0

[in] How did this test come out for "CC(=O)Nc1ccc(-c2nc3ccccc3s2)cc1O" ?
[out] class 0

[in] How did this test come out for CC(C)CC[C@H](O)[C@@H](C)[C@H]1[C@@H](OC2OC(C)C(O)C(O)C2O)C[C@H]2[C@@H]3CC=C4C[C@@H](O)CC[C@]4(C)[C@H]3[C@@H](O)C[C@]12C (stereo not given in full) ?
[out] class 0

[in] How did this test come out for "O=C1C=C(Nc2ccc(Br)cc2)c2ccccc2/C1=N/O" ?
[out] class 0

[in] How did this test come out for "C/C=C/C=C/[C@H]1Cc2cc(O)cc(O)c2O1" ?
[out] class 0

[in] How did this test come out for "CC(C)(C)OC(=O)N(O)CCCn1cnc2c(N)ncnc21" ?
[out] class 0

[in] How did this test come out for "O=C1C[C@H](c2ccc(O)c(O)c2)Oc2cc(O)cc(O)c21" ?
[out] class 0

[in] How did this test come out for Nc1ccn(C2OC(CO)C(O)C2O)c(=O)c1 (stereo not given) ?
[out] class 0
